# test_protocol: Therapeutic index, ratio of IC50 for cytotoxicity against human MCF10A cells to IC50 for antiproliferative activity against human MCF7 cells
# Type: toxicity, cell-based
# measurement_conditions: read-out: Ratio IC50
TRUE if selectivity ratio is below 20. FALSE if not; exact matches included in FALSE.

Completed entries (count: 10):
Report whether reported selectivity ratio is lower than 20 (strictly) for CCCCOc1ccc(C2=C(c3ccc(O)cc3)[C@H]3C[C@H](S(=O)(=O)N(CC(F)(F)F)c4ccc(OC)cc4)[C@@H]2O3)cc1 (relative stereo)
FALSE

Proceed to CCCCCCOc1ccc(N(CC)S(=O)(=O)[C@H]2C[C@H]3O[C@@H]2C(c2ccc(O)cc2)=C3c2ccc(O)cc2)cc1 (relative stereo)
FALSE

Same for CCCCCOc1ccc(C2=C(c3ccc(O)cc3)[C@H]3C[C@H](S(=O)(=O)N(CC(F)(F)F)c4ccc(OC)cc4)[C@@H]2O3)cc1 (relative stereo)
TRUE

Lookup CCCCOc1ccc(C2=C(c3ccc(O)cc3)[C@H]3O[C@@H]2C[C@@H]3S(=O)(=O)N(CC(F)(F)F)c2ccc(OC)cc2)cc1 (relative stereo)
FALSE

Here is the next compound: CCCCCCCCOc1ccc(C2=C(c3ccc(O)cc3)[C@H]3O[C@@H]2C[C@@H]3S(=O)(=O)N(CC(F)(F)F)c2ccc(OC)cc2)cc1 (relative stereo)
TRUE

Then CCCCCCOc1ccc(N(CC(F)(F)F)S(=O)(=O)[C@H]2C[C@H]3O[C@@H]2C(c2ccc(O)cc2)=C3c2ccc(O)cc2)cc1 (relative stereo) ?
FALSE

Follow-up entry: CCCCCCOc1ccc(C2=C(c3ccc(O)cc3)[C@H]3C[C@H](S(=O)(=O)N(CC(F)(F)F)c4ccc(OC)cc4)[C@@H]2O3)cc1 (relative stereo)
FALSE

Entry CCCCCCCCOc1ccc(C2=C(c3ccc(O)cc3)[C@H]3O[C@@H]2C[C@@H]3S(=O)(=O)N(CC(F)(F)F)c2ccc(Cl)cc2)cc1 please
FALSE

Can you handle COc1ccc(N(CC(F)(F)F)S(=O)(=O)[C@H]2C[C@H]3O[C@@H]2C(c2ccc(O)cc2)=C3c2ccc(O)cc2)cc1 (relative stereo) next?
TRUE

// next record CCCCCCCCOc1ccc(C2=C(c3ccc(O)cc3)[C@H]3C[C@H](S(=O)(=O)N(CC)c4ccccc4)[C@@H]2O3)cc1 (racemic)
TRUE

Next:
Just wondering, is selectivity ratio of CCCCCCOc1ccc(C2=C(c3ccc(O)cc3)[C@H]3O[C@@H]2C[C@@H]3S(=O)(=O)N(CC(F)(F)F)c2ccc(OC)cc2)cc1 below 20?
FALSE

// repeat for CCCCCCOc1ccc(N(C)S(=O)(=O)[C@H]2C[C@H]3O[C@@H]2C(c2ccc(O)cc2)=C3c2ccc(O)cc2)cc1 (relative stereo) and report
TRUE

Repeat for the following compound: CCCCOc1ccc(C2=C(c3ccc(O)cc3)[C@H]3O[C@@H]2C[C@@H]3S(=O)(=O)N(CC(F)(F)F)c2ccc(Cl)cc2)cc1 (relative stereo)
TRUE

---

# measured_on: Estrogen receptor (Homo sapiens) (UniProt P03372)
# Sequence (P03372 whole entry): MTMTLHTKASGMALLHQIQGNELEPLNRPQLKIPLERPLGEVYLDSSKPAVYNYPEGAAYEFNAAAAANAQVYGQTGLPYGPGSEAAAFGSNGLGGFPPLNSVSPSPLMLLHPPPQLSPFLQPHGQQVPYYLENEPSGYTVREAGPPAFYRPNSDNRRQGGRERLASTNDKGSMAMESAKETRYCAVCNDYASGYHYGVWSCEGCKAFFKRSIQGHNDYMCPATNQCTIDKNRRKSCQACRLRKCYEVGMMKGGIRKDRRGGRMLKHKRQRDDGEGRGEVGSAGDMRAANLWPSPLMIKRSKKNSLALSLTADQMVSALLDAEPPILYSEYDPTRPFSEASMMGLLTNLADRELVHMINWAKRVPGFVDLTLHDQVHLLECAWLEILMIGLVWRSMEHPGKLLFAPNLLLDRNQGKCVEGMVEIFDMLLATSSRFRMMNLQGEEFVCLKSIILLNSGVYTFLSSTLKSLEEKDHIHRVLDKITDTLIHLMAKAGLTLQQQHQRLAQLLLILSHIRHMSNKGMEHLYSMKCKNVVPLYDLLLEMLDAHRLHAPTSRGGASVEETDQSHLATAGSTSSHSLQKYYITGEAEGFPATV
# test_protocol: Induction of ERalpha degradation in human MCF7 cells assessed as decrease in ERalpha protein expression at 5 uM incubated for 24 hrs by Western blot analysis relative to control
# Type: cell-based
# Parameters: scale not given: the % may be the effect or the level left
Activity calls are given as the source filed them. The calls are words filed in the database; no cut-off is given here.
property: Activity

Examples with their reported Activity follow.
Find the measured Activity: item CCCCCCOc1ccc(C2=C(c3ccc(O)cc3)[C@H]3O[C@@H]2C[C@@H]3S(=O)(=O)N(CC(F)(F)F)c2ccc(OC)cc2)cc1 , target or system Estrogen receptor (Homo sapiens) (UniProt P03372).
100%

Repeat with CCCCCOc1ccc(C2=C(c3ccc(O)cc3)[C@H]3C[C@H](S(=O)(=O)N(CC(F)(F)F)c4ccc(OC)cc4)[C@@H]2O3)cc1 (relative stereo)
100%

Now the compound CCCCOc1ccc(C2=C(c3ccc(O)cc3)[C@H]3O[C@@H]2C[C@@H]3S(=O)(=O)N(CC(F)(F)F)c2ccc(OC)cc2)cc1 (relative stereo)
100%

Here is the next compound: CCCCCCOc1ccc(N(CC)S(=O)(=O)[C@H]2C[C@H]3O[C@@H]2C(c2ccc(O)cc2)=C3c2ccc(O)cc2)cc1 (relative stereo)
Active

Would you kindly repeat that for CCCCOc1ccc(C2=C(c3ccc(O)cc3)[C@H]3C[C@H](S(=O)(=O)N(CC(F)(F)F)c4ccc(OC)cc4)[C@@H]2O3)cc1 (relative stereo) ?
100%

Follow-up entry: CCCCCCOc1ccc(N(C)S(=O)(=O)[C@H]2C[C@H]3O[C@@H]2C(c2ccc(O)cc2)=C3c2ccc(O)cc2)cc1 (relative stereo)
Active

More entries:
# value lookup — system Estrogen receptor (Homo sapiens) (UniProt P03372), readout Activity, item CCCCCCOc1ccc(C2=C(c3ccc(O)cc3)[C@H]3C[C@H](S(=O)(=O)N(CC(F)(F)F)c4ccc(OC)cc4)[C@@H]2O3)cc1 (relative stereo)
100%

And then CCCCCOc1ccc(C2=C(c3ccc(O)cc3)[C@H]3O[C@@H]2C[C@@H]3S(=O)(=O)N(CC(F)(F)F)c2ccc(OC)cc2)cc1 (relative stereo) , what is it?
100%

Please answer likewise for CCCCCCOc1ccc(N(CC(F)(F)F)S(=O)(=O)[C@H]2C[C@H]3O[C@@H]2C(c2ccc(O)cc2)=C3c2ccc(O)cc2)cc1 (relative stereo)
Active
